protein stability index for assorted sequences
test: protein stability index of a GFP-peptide fusion (yeast GPS) (PSI 1-4); higher = more stable; sorted into four equal gates, so the index is relative within each strain; conditions: ubr1∆
Hey, just send me the number, nothing else.

Known protein stability index results, listed for orientation:
- SEQUENCE CHAIN: "MAKKEGTPKTDSFIFDG [MED4]"
  OBSERVABLE: "protein stability index"
  OBSERVED RESULT: 3.28
- SEQUENCE CHAIN: "VGPHFKQANNFLWPFKL [RPL7A]"
  OBSERVABLE: "protein stability index"
  OBSERVED RESULT: 2.93
- SEQUENCE CHAIN: "DEEAAGASTVMKTKTIN [PRP8]"
  OBSERVABLE: "protein stability index"
  OBSERVED RESULT: 3.19

Bench note: what protein stability index did PTLVRSVISGNLSLYEA [CSN12] show?
2.91

Bench note: what protein stability index did NFEATKKSVLKQVQDFE [COR1] show?
2.91

Bench note: what protein stability index did VPRKFKHFIQGGSFGNR [RPL7A] show?
2.17

Bench note: what protein stability index did KQQDAEELFTQLFHSMS [UBP6] show?
3.14

Bench note: what protein stability index did FTQPALTLMEKAAFEDL [FAS1] show?
2.9

Bench note: what protein stability index did EYALEAVKRGTCAVGVK [PRE6] show?
2.92

Bench note: what protein stability index did GAHGNSDPVCLFVCNKD [POP3] show?
2.8

Bench note: what protein stability index did ATEPQMVLFNIYDDWLD [PRP8] show?
2.18

Bench note: what protein stability index did YCSGNIYDFHKMENLMR [YJL039C/NUP192] show?
2.73

Bench note: what protein stability index did ELIKNYITARIMAKRPF [FAS1] show?
2.78

Bench note: what protein stability index did EDGTIESYNQNDWKLET [SIN4] show?
2.98

Bench note: what protein stability index did VYFGDENKVMLPRCSKE [RRI2] show?
3.13

Bench note: what protein stability index did KPGSTVMLLGTPDANLI [UBP6] show?
3.38

Bench note: what protein stability index did VKIGKFIPHGLKRRQVI [SRB8] show?
1.95

Bench note: what protein stability index did CTKLAVYYSKRGFKVGL [SRP54] show?
2.54

Bench note: what protein stability index did YDLNFKLRETLVKIDDL [SMC1] show?
2.68

Bench note: what protein stability index did TQPKATSTGTTIVGVKF [PUP1] show?
3.03

* * *

experiment: protein stability index of a GFP-peptide fusion (yeast GPS) (PSI 1-4); higher = more stable; sorted into four equal gates, so the index is relative within each strain; conditions: san1∆
Note to self: class = bucket of protein stability index, per lo: < 2; mid: ≥ 2 and < 3; hi: ≥ 3

- SEQUENCE CHAIN: "LVILKPDLNIDRNNSTN [SIN4]"
  QUALITATIVE LABEL: "mid"

Form field 'band' for PNIFPNLTYYNEKLECI [ITC1]
mid

Form field 'band' for TSQMDLARDTPSANNSS [RRP4]
lo

Form field 'band' for LKNLRKKLNFKLCQAFM [YJR042W/NUP85]
lo

Form field 'band' for LLRLASKSTSMKLSMPP [POP1]
mid

Form field 'band' for FTGDFLRRVEERFTKSK [FAS1]
hi

Form field 'band' for AASAAGYDRHITIFSPE [SCL1]
mid

Form field 'band' for APSLTVPPIASPQQFLR [PRE2]
lo

Form field 'band' for LLRQKIEQCKHPLHELI [ISW2]
lo

Form field 'band' for LLSDPTITIKSYHLWPS [PRP8]
mid

Form field 'band' for KFLNFRPPNGIKNFKSL [SSN2]
mid
